- target-or-system: MEK-1/ERK-2 (Homo sapiens, UniProt Q02750, S218E/S222E)
- Sequence (Q02750 whole entry S218E/S222E): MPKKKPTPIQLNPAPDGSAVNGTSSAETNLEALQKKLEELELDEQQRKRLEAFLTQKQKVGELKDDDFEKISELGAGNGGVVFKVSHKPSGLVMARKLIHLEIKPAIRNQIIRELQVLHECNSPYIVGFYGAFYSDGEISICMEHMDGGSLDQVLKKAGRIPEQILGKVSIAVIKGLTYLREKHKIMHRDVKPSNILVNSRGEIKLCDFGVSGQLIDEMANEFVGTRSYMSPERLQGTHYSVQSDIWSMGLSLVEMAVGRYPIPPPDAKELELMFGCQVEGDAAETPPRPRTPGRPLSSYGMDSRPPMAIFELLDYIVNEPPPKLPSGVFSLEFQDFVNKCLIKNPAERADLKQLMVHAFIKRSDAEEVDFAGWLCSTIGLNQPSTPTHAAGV
- test-description: MEK-1/ERK-2 enzyme cascade assay (33P incorporation into MBP biotin)
- experimental-context: 3 μM ATP, phosphorylation of myelin basic protein
- Description: MEK-1/ERK-2 Enzyme Cascade Assay A 50 μl mixture containing 40 nM of constitutively active MEK1EE, 160 nM of ERK2 and 10 μM MBP biotin were incubated in the presence or absence of the below compound of the invention in 1% DMSO and 1× kinase buffer containing 3 μM ATP, 50 mM Tris-HCl pH 8.0, 10 mM MgCl2, 1 mM DTT, 100 μM Na3VO4 and […] ^33P-γATP in Wallac 96 well white plates for 2 hours at room temperature. […]
readout-type: IC50 (nM)

molecule | IC50, nM
O=C(OC(COc1ccccc1)Cn1ccnc1)c1ccc(I)cc1 (stereo not shown) | 36

[A] O=C(N[C@@H](COc1ccccc1)Cn1ccnc1)c1ccc(I)cc1
[B] COc1ccc(C(=O)O[C@@H](COc2ccccc2)Cn2ccnc2)cc1
[C] COc1ccc(C(=O)OC(COc2ccccc2)Cn2ccnc2)cc1 (racemic) [4-methoxy-benzoic acid 1-imidazol-1-yl methyl-2-phenoxy-ethyl ester (racemic)]
INPUT: Sort these molecules on IC50 so the largest reading comes first. Output spec: labels arranged per the requested ranking.
OUTPUT: C, B, A
(C: 1780 nM, B: 920 nM, A: 85 nM)

###

- System: Chronic Myelogenous Leukemia (K562 cell line; ATCC CCL-243)
readout-type: IC50 (µM)
Just the number please, in µM, no unit attached.

INPUT: # query: IC50 | item O=C(OC(COc1ccccc1)Cn1ccnc1)c1ccc(I)cc1 (stereo not shown) [Example 1] | system: Chronic Myelogenous Leukemia (K562 cell line; ATCC CCL-243)
OUTPUT: 33

###

- Tested on: Lung Carcinoma (PC-6 cell line)
- Method: Breast cancer MCF-7 cells or ovarian cancer OVCAR-3 cells were plated in 96 well Packard white plates at 4×10^3 cells/well and cultured overnight at 37° C. in 5% CO2. […] MCF-7 and OVCAR-3 (ATCC HTB-161) plates were incubated for an additional 4 to 5 days respectively at 37° C. and 5% CO2 and cell proliferation was quantitated using the ATP lite cell proliferation kit (Packard). […]
readout-type: IC50 (µM)
Just the number please, in µM, no unit attached.

INPUT: Entry O=C(OC(COc1ccccc1)Cn1ccnc1)c1ccc(I)cc1 (stereo not shown) [Example 1] : reported IC50 = ?
OUTPUT: 43
